The values you see were collected from patent US20240366778A1.

# tested_system: T1, Human Nectin-4 Protein, His Tag (human, UniProt Q96NY8 32-349)
# T1 construct: not shown: His tag
# T1 sequence (looked up): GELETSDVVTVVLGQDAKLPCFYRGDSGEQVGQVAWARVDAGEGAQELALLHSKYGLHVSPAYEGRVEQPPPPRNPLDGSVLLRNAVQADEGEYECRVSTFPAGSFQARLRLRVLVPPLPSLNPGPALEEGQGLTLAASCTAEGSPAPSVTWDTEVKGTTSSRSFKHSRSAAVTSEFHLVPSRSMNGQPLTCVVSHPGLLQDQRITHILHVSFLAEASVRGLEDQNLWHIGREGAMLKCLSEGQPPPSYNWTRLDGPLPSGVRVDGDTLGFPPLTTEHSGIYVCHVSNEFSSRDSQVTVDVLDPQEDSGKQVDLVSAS
# test: BLI (Fortebio), antibody with human Nectin-4 protein
experimental_readout: kon (M⁻¹ s⁻¹)
The figure you give is taken to be in M⁻¹ s⁻¹; do not add the unit.

[
  {
    "binder": "humanized antibody SWY2001-Ab2 (antibody, human IgG1, kappa, V domains shown, Full-length IgG1, kappa) VH: QVQLVQSGAEVKKPGASVKVSCKASGYTFTSYYIHWVRQAPGQRLEWMGWIYPGNVNTKYNENFRDRVTITRDTSASTAYMELSSLRSEDTAVYYCARGIYYFDYWGQGTLVTVSS VL: AIQMTQSPSSLSASVGDRVTITCKASQSVNNDVAWYQQKPGKAPKLLIYYASNRDTGVPSRFSGSGSGTDFTLTISSLQAEDLAVYFCHQDYSSPFTFGGGTKVEIKR",
    "reported_result": 752000
  },
  {
    "binder": "Chimeric antibody (antibody, V domains shown, also called chimeric anti-Nectin-4 antibody; murine antibody variable regions on human IgG1) VH: QVQLQQSGPVLVKPGASVRISCKASGYTFTSYYIHWVKQRPGQGLEWIGWIYPGNVNTKYNENFRDKATLTADKSSSTSYMQLSSLTSEDSAVYFCARGIYYFDYWGQGTTLTVSS VL: IIVMTQTPKFLLVSAGDRVTITCKASQSVNNDVAWYQEKPGQSPKLLIYYASNRDTGVPDRFTGSGYGTDFTFTISTVQAEDLAVYFCHQDYSSPFTFGSGTKLEIK",
    "reported_result": 646000
  },
  {
    "binder": "humanized antibody SWY2001-Ab1 (antibody, human IgG1, kappa, V domains shown) VH: QVQLVQSGAEVKKPGASVKVSCKASGYTFTSYYIHWVRQAPGQRLEWMGWIYPGNVNTKYNENFRDRVTITRDTSASTAYMELSSLRSEDTAVYYCARGIYYFDYWGQGTLVTVSS VL: IIQMTQSPKFLSASVGDRVTITCKASQSVNNDVAWYQQKPGQSPKLLIYYASNRDTGVPDRFSGSGSGTDFTLTISSLQPEDFATYFCHQDYSSPFTFGGGTKVEIKR",
    "reported_result": 756000
  }
]

Okay, now this binder:
Ask: Quick one: kon of humanized antibody SWY2001-Ab3 (antibody, human IgG1, kappa, V domains shown, Full-length IgG1, kappa) VH: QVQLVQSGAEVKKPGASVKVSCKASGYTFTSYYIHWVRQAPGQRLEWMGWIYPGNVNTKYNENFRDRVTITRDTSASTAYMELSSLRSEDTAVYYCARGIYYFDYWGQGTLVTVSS VL: AIQMTQSPSSLSASVGDRVTITCKASQSVNNDVAWYQQKPGKAPKLLIYYASNRDTGVPSRFSGSGSGTDFTLTISSLQPEDFATYFCHQDYSSPFTFGGGTKVEIKR ?
Reply: 836000
